# TESTED_TARGET: Luciferin 4-monooxygenase (Photinus pyralis) (UniProt P08659)
# Sequence (P08659 whole entry, looked up): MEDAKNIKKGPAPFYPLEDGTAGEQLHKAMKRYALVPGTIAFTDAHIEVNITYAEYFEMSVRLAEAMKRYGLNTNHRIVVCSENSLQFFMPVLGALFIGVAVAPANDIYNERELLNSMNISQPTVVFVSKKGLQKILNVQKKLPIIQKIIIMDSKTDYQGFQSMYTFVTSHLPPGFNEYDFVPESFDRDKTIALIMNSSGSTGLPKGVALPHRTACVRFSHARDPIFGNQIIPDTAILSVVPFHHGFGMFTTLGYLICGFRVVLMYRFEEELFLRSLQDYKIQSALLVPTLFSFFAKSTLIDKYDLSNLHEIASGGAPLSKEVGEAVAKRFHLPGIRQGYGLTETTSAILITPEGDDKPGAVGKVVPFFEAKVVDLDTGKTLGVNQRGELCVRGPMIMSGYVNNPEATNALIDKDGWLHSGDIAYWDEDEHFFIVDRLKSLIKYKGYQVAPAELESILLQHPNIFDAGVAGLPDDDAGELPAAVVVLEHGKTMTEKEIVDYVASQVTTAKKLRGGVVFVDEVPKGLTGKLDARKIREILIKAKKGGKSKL
# TEST_SUMMARY: Biochemical firefly luciferase enzyme assay for NPC (AID 624030); also: nearly all actives have a fitted effect of over 70% in size
# CONDITION_DESCRIPTION: purified P. pyralis luciferase, luminescence, 5 min; series mostly up to 24.9 µM
Records with an inconclusive call do not appear. Calls of active or inactive are those of the source. Calls follow the shape of the dose curve; as a rule, active = well fitted inhibition curve with a large enough effect; inconclusive = small, poorly fitted or top-dose-only effect; inactive = flat fitted curve, though single readings scatter. Bridge positions count the residues as written; N and C are the ends. Square brackets hold non-standard residues; d marks the D form. Peptide text beside a SMILES is read from it. * marks the point of attachment. Ileψ(thiazoline)Cys = CC[C@H](C)[C@H](N)C1=N[C@H](C(=O)*)CS1; d(aIle) = CC[C@H](C)[C@@H](N)C(=O)O; dOrn = NCCC[C@@H](N)C(=O)O
Pick one and only one: 1 (active), 0 (inactive)

Q) What classification did CC(C)(C)NC[C@@H](O)COc1ccccc1C1CCCC1 end up with in this test?
A) 0

Q) Another compound: CC(C)Oc1ccc2c(=O)cc(-c3ccccc3)oc2c1
A) 1

Q) Another compound: CCCOC(=O)c1cc(O)c(O)c(O)c1
A) 0

Q) Another compound: CCCC(=O)O[C@]1(C(=O)CO)CCC2[C@@H]3CCC4=CC(=O)CC[C@]4(C)C3C(O)C[C@]21C (stereo partly specified)
A) 0

Q) Another compound: CN(C)CCCOC1C(C(O)CO)OC2OC(C)(C)O[C@@H]21 (stereo partly specified)
A) 0

Q) Another compound: CCOC(=O)[C@H](CCc1ccccc1)N[C@@H](C)C(=O)N1[C@H](C(=O)O)C[C@H]2CCC[C@@H]21
A) 0

Q) Another compound: CC(=O)[C@@H]1CC[C@@H]2[C@@H]3C[C@H](C)C4=CC(=O)CC[C@@]4(C)[C@H]3[C@H](O)C[C@]21C
A) 0

Q) Another compound: O=C(OC[C@@H](O)CO)c1ccccc1Nc1ccnc2cc(Cl)ccc12
A) 0

Q) Another compound: CN1CCN([C@@H](c2ccccc2)c2ccc(Cl)cc2)CC1
A) 0

Q) Another compound: CCO[C@H]1O[C@@H]([C@H](COCc2ccccc2)OCc2ccccc2)[C@@H](OCc2ccccc2)[C@H]1O
A) 0

Q) Another compound: Nc1nc(NC2CC2)c2ncn([C@H]3C=C[C@@H](CO)C3)c2n1
A) 1

Q) Another compound: C=CC1=C(C(=O)O)N2C(=O)[C@@H](NC(=O)/C(=N\OCC(=O)O)c3csc(N)n3)[C@@H]2SC1
A) 0

Q) Another compound: CC[C@H](C)[C@H](N)C1=N[C@H](C(=O)N[C@@H](CC(C)C)C(=O)N[C@@H](CCC(=O)O)C(=O)N[C@@H](C(=O)N[C@H]2CCCCNC(=O)[C@@H](CC(N)=O)NC(=O)[C@@H](CC(=O)O)NC(=O)[C@@H](Cc3cnc[nH]3)NC(=O)[C@@H](Cc3ccccc3)NC(=O)[C@@H]([C@@H](C)CC)NC(=O)[C@@H](CCCN)NC2=O)[C@@H](C)CC)CS1 ({Ileψ(thiazoline)Cys}-LE[d(aIle)]K[dOrn][d(aIle)][dF][dH][dD][dN]; lactam 4-C)
A) 0

Q) Another compound: CC(=O)[C@]1(O)CCC2C3C=C(Cl)C4=CC(=O)C5CC5[C@@]4(C)C3CC[C@]21C (stereo partly specified)
A) 0

Q) Another compound: CN1C(=O)C[C@H](c2ccccc2)C1=O
A) 0

Q) Another compound: CC1(C)SC2C(NC(=O)C(N)c3ccccc3)C(=O)N2C1C(=O)O (stereo unspecified)
A) 0

Q) Another compound: C#C[C@]1(O)CCC2C3CCC4=CC(=O)CCC4C3CC[C@@]21C (stereo partly specified)
A) 0

Q) Another compound: CN1CC(=O)N=C1N
A) 0

Q) Another compound: C[C@@]12C=CC(=O)C=C1CCC1C3CC(O)[C@@](O)(C(=O)CO)[C@]3(C)CC(O)[C@]12F (stereo partly specified)
A) 0

Q) Another compound: OCC1OC([S-])[C@H](O)C(O)C1O.[Au+] (stereo partly specified)
A) 0

Q) Another compound: NCC1O[C@@H](OC2C(N)C[C@H](N)[C@@H](O[C@H]3OC(CO)C(O)C(N)C3O)C2O)C(N)C(O)C1O (stereo partly specified)
A) 0

Values compiled from PubChem BioAssay (NCATS).
